IC50 for DNA (cytosine-5)-methyltransferase 1 (Homo sapiens, UniProt P26358) - collated from the literature.
measurement name: IC50

smiles: CCCc1cc(C)[nH]c(=O)c1CNC(=O)c1cc(-c2ccnc(N3CCN(C)CC3)c2)cc2c1cnn2C(C)C
target or test system: DNA (cytosine-5)-methyltransferase 1 (Homo sapiens, UniProt P26358)
Sequence (P26358 whole entry): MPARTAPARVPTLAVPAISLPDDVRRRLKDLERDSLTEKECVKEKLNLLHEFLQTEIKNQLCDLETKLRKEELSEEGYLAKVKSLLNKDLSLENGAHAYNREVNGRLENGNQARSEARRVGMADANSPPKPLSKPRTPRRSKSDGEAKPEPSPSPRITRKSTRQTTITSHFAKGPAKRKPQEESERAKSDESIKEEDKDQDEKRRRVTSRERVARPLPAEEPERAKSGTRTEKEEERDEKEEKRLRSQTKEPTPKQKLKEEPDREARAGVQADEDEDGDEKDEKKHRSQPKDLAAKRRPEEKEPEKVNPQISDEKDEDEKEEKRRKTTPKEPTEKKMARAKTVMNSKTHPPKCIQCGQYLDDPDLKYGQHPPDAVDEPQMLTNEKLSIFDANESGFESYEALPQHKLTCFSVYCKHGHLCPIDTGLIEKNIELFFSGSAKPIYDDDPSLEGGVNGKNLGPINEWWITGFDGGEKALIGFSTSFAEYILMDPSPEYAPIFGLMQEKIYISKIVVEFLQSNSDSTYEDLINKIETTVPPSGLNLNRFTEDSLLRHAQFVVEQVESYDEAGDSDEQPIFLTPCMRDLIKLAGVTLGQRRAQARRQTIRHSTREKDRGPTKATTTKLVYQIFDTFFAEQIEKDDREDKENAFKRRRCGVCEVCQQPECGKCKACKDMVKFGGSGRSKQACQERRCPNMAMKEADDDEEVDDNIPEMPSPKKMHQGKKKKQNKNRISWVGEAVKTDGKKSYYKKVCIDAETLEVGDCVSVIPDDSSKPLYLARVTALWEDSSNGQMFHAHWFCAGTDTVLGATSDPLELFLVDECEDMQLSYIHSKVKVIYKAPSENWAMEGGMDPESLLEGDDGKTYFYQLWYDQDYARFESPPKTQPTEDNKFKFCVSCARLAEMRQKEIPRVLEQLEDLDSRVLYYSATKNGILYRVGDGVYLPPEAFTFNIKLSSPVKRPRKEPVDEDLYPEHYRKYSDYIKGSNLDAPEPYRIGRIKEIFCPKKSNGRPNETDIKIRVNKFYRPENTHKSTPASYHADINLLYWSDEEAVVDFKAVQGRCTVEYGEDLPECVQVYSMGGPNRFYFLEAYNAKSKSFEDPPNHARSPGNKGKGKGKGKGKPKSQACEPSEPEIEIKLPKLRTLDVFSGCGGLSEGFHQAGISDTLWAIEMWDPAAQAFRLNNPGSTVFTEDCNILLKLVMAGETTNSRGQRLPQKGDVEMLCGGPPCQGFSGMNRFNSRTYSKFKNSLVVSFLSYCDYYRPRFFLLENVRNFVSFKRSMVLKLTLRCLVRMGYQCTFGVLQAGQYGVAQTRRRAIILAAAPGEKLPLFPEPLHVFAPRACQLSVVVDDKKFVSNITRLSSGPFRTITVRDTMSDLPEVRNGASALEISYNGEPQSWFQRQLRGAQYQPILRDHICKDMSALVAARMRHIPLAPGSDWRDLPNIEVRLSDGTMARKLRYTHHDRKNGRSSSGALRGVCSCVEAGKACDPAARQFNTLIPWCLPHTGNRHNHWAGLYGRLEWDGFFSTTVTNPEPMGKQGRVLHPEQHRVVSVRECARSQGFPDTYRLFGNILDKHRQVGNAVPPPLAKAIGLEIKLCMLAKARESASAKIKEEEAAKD
measurement: > 100 µM
//
smiles: Nc1ncnc2c1ncn2[C@@H]1O[C@H](CS[C@H]2CCN[C@@H](C(=O)O)C2)[C@@H](O)[C@H]1O
target or test system: DNA (cytosine-5)-methyltransferase 1 (Homo sapiens, UniProt P26358)
measurement: > 100 µM
//
smiles: COc1cc2nc(-c3ccc(C)o3)nc(NCC3CCN(c4ncc(C(=O)NO)cn4)CC3)c2cc1OC
target or test system: DNA (cytosine-5)-methyltransferase 1 (Homo sapiens, UniProt P26358)
measurement: > 10 µM
//
smiles: COc1cc2nc(N3CCCC3)nc(NCCCCCN3CCCC3)c2cc1OC
target or test system: DNA (cytosine-5)-methyltransferase 1 (Homo sapiens, UniProt P26358)
measurement: > 100 µM
//
smiles: COc1cc2nc(-c3ccc(C)o3)cc(NCc3ccc(C(=O)NO)cn3)c2cc1OC
target or test system: DNA (cytosine-5)-methyltransferase 1 (Homo sapiens, UniProt P26358)
measurement: > 10 µM
//
smiles: COc1cc2nc(-c3cc(C)oc3C)cc(NCC3CCN(c4ncc(C(=O)NO)cn4)CC3)c2cc1OC
target or test system: DNA (cytosine-5)-methyltransferase 1 (Homo sapiens, UniProt P26358)
measurement: > 10 µM
//
smiles: Nc1ncnc2c1ncn2[C@@H]1O[C@H](CS[C@H]2CN[C@H](C(=O)O)C2)[C@@H](O)[C@H]1O
target or test system: DNA (cytosine-5)-methyltransferase 1 (Homo sapiens, UniProt P26358)
measurement: > 100 µM
//
smiles: COc1cc2nc(C)cc(NCC3CCN(c4ncc(C(=O)NO)cn4)CC3)c2cc1OC
target or test system: DNA (cytosine-5)-methyltransferase 1 (Homo sapiens, UniProt P26358)
measurement: > 10 µM
//
smiles: O=C(CCCCCCC(=O)Nc1ccccc1)NO
target or test system: DNA (cytosine-5)-methyltransferase 1 (Homo sapiens, UniProt P26358)
measurement: > 10 µM
